Assay: Acute toxicity, single intraperitoneal dose, Litchfield-Wilcoxon
Assay type: in vivo, mice
Details: mouse, in vivo, ip; male Balb/c mice, i.p. single dose, 14th day

molecule: Cn1nnc2c(C(N)=O)ncn2c1=O [Temozolomide Substance]
valueUnits: mg/kg
LD50 at 14 days: 472
